Cited source: PubChem BioAssay AID652054

Measured on: D(3) dopamine receptor (Homo sapiens) (UniProt P35462)
Sequence (P35462 whole entry, looked up): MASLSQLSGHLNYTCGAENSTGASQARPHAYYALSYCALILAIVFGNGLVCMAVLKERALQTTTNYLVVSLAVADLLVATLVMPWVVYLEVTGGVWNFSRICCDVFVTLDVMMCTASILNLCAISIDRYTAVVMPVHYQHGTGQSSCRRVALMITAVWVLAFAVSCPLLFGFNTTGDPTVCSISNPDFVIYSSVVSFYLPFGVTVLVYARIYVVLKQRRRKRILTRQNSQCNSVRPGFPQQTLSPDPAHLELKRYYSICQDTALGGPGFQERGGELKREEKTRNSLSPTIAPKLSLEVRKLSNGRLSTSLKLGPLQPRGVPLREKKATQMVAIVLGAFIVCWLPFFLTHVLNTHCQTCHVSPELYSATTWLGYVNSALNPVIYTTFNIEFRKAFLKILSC
Method: qHTS of D3 Dopamine Receptor Antagonist: qHTS; further: on the % scale 0 is the no-effect control and ±100 the full control effect
Condition details: D3R cells, DiscoveRx beta-arrestin luminescence, antagonist mode; hits give low values
Procedure: D3 DARs represent a very important target for the treatment of several neuropsychiatric disorders. Indeed, one of the most promising therapeutic applications for the D3 DAR is in the area of addiction and related disorders. […] Freshly passaged cells are plated in 1536 well white, solid bottom plates at a density of 1500 cells/well in 3microl of complete media. […] Following incubation, luminescence is measured on a ViewLux CCD-based luminometer reader using a 20 sec exposure time.
Among all 360,000 compounds or so, about 9,100 (2.5%) were called active. Another 4% or so got no clear call; they are omitted. The sample as a whole holds a higher share of actives than the screen did.
Endpoint name: max response, negative = inhibition

Below are worked cases with known answers.
| Record smiles | Measured on | Obs value |
| --- | --- | --- |
| CN(Cc1ccccc1)C(=O)[C@@H]1CCCN1C(=O)[C@@H]1CCCN1C(=O)c1c(F)cccc1F | D(3) dopamine receptor (Homo sapiens) (UniProt P35462) | -11.2% (inactive) |
| CCOc1ccc(NC(=O)N2CC=C(n3c(=O)[nH]c4ccccc43)CC2)cc1 | D(3) dopamine receptor (Homo sapiens) (UniProt P35462) | -51.2% (active) |
| O=C(Nc1ccccc1)N1CCN(Cc2ccccc2)CC1 | D(3) dopamine receptor (Homo sapiens) (UniProt P35462) | -70.6% (active) |
| COc1ccc(C(=O)O)cc1S(=O)(=O)NC1CCN(Cc2ccccc2)CC1 | D(3) dopamine receptor (Homo sapiens) (UniProt P35462) | 8.04% (inactive) |
| COc1cc2[nH]c(=O)n(CCC(=O)NC3CCN(Cc4ccccc4)CC3)c(=O)c2cc1OC | D(3) dopamine receptor (Homo sapiens) (UniProt P35462) | -7.24% (inactive) |

Task: Tell me the measured max response, negative = inhibition of O=C(NC(=S)N1CCN(Cc2ccccc2)CC1)c1ccccc1 , please.
Output: -1.99% (inactive)

Task: Would you mind telling me what max response, negative = inhibition value was observed for O=C1CC[C@@H](C(=O)N2CSC[C@@H]2C(=O)Nc2ccc(C(F)(F)F)cc2)N1 ?
Output: -3.96% (inactive)

Task: Entry under review: COCCCNC(=O)c1cccc2c(-c3ccc(O)c(OC)c3)coc12 . Reported max response, negative = inhibition?
Output: 0.229% (inactive)

Task: Can you share its max response, negative = inhibition? I mean this molecule: COc1ccc(C(=O)OCC(=O)Nc2cc(C)on2)cc1F
Output: 9.93% (inactive)

Task: What value of max response, negative = inhibition has been recorded for this entry: CCOc1cc2[nH]c(=O)n(Cc3ccc(C(=O)NCCCN4CCCC4=O)cc3)c(=O)c2cc1OCC
Output: 6.17% (inactive)
